Cited source: patent US20180155427A1

Form field: Ranking FACS data (one value per entry).
Assayed System: T1, human PD-1 expressed on cells (human, UniProt Q15116 25-288)
T1 construct: whole, on cells; Treated as one molecule; also called PD-1 expressing Jurkat cells; human PD-1 transfected Jurkat cells
T1 sequence (Q15116 25-288): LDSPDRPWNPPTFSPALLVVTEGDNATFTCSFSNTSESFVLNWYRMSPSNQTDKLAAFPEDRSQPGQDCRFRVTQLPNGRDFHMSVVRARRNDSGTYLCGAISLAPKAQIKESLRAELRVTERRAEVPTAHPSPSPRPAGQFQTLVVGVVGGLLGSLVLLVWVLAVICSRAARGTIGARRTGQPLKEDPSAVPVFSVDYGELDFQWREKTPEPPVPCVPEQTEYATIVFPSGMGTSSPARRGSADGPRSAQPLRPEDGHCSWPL
Assay Method Text: rank among the 16 humanized clones by FACS binding data on PD-1-expressing cells
Quick one: just the number, no unit, thanks!

Answered examples (6):
Binder	Ranking FACS data
humanized mAb BAP049-hum12 (antibody, human IgG4 S228P, kappa, V domains shown, Human IgG4(S228P), human kappa; tested as concentrated supernatant of transiently transfected CHO cells) VH: EVQLVQSGAEVKKPGESLRISCKGSGYTFTTYWMHWVRQATGQGLEWMGNIYPGTGGSNFDEKFKNRVTITADKSTSTAYMELSSLRSEDTAVYYCTRWTTGTGAYWGQGTTVTVSS VL: DIQMTQSPSSLSASVGDRVTITCKSSQSLLDSGNQKNFLTWYLQKPGQSPQLLIYWASTRESGVPSRFSGSGSGTDFTFTISSLEAEDAATYYCQNDYSYPYTFGQGTKVEIKR	3
humanized mAb BAP049-hum02 (antibody, human IgG4 S228P, kappa, V domains shown, Human IgG4(S228P), human kappa; tested as concentrated supernatant of transiently transfected CHO cells) VH: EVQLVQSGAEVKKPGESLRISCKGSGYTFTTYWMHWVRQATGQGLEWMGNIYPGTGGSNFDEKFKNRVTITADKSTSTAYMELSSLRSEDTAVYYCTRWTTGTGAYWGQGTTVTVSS VL: DIQMTQSPSSLSASVGDRVTITCKSSQSLLDSGNQKNFLTWYQQKPGQAPRLLIYWASTRESGIPPRFSGSGYGTDFTLTINNIESEDAAYYFCQNDYSYPYTFGQGTKVEIKR	6
humanized mAb BAP049-hum03 (antibody, human IgG4 S228P, kappa, V domains shown, Human IgG4(S228P), human kappa; tested as concentrated supernatant of transiently transfected CHO cells) VH: EVQLVQSGAEVKKPGESLRISCKGSGYTFTTYWMHWIRQSPSRGLEWLGNIYPGTGGSNFDEKFKNRFTISRDNSKNTLYLQMNSLRAEDTAVYYCTRWTTGTGAYWGQGTTVTVSS VL: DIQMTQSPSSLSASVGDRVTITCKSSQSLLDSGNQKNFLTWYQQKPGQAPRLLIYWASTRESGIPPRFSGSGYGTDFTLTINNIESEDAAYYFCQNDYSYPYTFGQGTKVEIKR	7
humanized mAb BAP049-hum01 (antibody, human IgG4 S228P, kappa, V domains shown, Human IgG4(S228P), human kappa; tested as concentrated supernatant of transiently transfected CHO cells; also called Clone No. 01) VH: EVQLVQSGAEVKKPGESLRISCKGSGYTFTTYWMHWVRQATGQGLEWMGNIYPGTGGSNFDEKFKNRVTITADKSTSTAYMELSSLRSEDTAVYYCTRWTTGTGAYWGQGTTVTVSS VL: EIVLTQSPATLSLSPGERATLSCKSSQSLLDSGNQKNFLTWYQQKPGQAPRLLIYWASTRESGVPSRFSGSGSGTEFTLTISSLQPDDFATYYCQNDYSYPYTFGQGTKVEIKR	2
humanized mAb BAP049-hum04 (antibody, human IgG4 S228P, kappa, V domains shown, Human IgG4(S228P), human kappa; tested as concentrated supernatant of transiently transfected CHO cells) VH: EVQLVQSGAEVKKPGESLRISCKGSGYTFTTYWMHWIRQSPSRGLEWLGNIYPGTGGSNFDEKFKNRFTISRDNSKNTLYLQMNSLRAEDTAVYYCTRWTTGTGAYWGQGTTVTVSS VL: EIVLTQSPATLSLSPGERATLSCKSSQSLLDSGNQKNFLTWYQQKPGKAPKLLIYWASTRESGVPSRFSGSGSGTDFTFTISSLQPEDIATYYCQNDYSYPYTFGQGTKVEIKR	14
humanized mAb BAP049-hum05 (antibody, human IgG4 S228P, kappa, V domains shown, Human IgG4(S228P), human kappa; tested as concentrated supernatant of transiently transfected CHO cells; also called Clone No. 05) VH: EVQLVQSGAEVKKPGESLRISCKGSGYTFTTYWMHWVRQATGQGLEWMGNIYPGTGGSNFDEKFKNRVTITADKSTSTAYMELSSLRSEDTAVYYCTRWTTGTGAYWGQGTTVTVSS VL: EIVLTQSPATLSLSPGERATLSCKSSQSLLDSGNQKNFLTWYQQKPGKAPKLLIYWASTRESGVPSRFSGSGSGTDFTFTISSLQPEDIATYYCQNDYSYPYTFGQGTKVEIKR	5

Continue with the next binder.
q: Please look up its Ranking FACS data: humanized mAb BAP049-hum16 (antibody, human IgG4 S228P, kappa, V domains shown, Human IgG4(S228P), human kappa; tested as concentrated supernatant of transiently transfected CHO cells) VH: EVQLVQSGAEVKKPGESLRISCKGSGYTFTTYWMHWVRQAPGQGLEWMGNIYPGTGGSNFDEKFKNRFTISRDNSKNTLYLQMNSLRAEDTAVYYCTRWTTGTGAYWGQGTTVTVSS VL: EIVLTQSPDFQSVTPKEKVTITCKSSQSLLDSGNQKNFLTWYQQKPGQAPRLLIYWASTRESGVPSRFSGSGSGTDFTFTISSLEAEDAATYYCQNDYSYPYTFGQGTKVEIKR
a: 15
